Target: Aiolos (Homo sapiens, UniProt Q96SW2+Q9UKT9)
Construct: endogenous in cells; host or cells: Mino, Rec-1
Sequence (Q9UKT9 whole entry): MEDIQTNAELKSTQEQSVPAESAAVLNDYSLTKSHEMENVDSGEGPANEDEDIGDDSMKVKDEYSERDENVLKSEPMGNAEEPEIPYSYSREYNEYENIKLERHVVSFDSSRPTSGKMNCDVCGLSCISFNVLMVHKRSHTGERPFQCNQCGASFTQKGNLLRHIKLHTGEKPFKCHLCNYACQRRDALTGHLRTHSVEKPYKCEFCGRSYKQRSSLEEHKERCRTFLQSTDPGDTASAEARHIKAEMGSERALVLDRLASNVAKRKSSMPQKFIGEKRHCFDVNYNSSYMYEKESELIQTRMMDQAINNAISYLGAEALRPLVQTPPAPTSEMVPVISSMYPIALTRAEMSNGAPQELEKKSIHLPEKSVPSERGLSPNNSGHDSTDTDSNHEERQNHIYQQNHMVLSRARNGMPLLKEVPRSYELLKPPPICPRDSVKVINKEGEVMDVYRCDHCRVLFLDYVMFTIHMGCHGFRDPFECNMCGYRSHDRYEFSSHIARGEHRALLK
Sequence (Q96SW2 whole entry): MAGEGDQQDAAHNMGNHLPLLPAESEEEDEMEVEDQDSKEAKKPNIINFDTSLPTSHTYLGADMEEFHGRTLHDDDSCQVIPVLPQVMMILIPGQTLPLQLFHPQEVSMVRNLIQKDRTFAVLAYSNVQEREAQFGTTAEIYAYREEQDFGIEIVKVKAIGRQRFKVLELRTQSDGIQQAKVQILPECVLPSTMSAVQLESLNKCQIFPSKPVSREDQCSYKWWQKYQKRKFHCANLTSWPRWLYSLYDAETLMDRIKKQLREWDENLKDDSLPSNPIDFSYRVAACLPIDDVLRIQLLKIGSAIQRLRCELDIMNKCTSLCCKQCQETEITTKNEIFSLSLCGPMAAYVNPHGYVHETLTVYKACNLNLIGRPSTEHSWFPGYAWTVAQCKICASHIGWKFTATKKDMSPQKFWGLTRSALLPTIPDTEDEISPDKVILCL
Sequence (Q16531 whole entry partner): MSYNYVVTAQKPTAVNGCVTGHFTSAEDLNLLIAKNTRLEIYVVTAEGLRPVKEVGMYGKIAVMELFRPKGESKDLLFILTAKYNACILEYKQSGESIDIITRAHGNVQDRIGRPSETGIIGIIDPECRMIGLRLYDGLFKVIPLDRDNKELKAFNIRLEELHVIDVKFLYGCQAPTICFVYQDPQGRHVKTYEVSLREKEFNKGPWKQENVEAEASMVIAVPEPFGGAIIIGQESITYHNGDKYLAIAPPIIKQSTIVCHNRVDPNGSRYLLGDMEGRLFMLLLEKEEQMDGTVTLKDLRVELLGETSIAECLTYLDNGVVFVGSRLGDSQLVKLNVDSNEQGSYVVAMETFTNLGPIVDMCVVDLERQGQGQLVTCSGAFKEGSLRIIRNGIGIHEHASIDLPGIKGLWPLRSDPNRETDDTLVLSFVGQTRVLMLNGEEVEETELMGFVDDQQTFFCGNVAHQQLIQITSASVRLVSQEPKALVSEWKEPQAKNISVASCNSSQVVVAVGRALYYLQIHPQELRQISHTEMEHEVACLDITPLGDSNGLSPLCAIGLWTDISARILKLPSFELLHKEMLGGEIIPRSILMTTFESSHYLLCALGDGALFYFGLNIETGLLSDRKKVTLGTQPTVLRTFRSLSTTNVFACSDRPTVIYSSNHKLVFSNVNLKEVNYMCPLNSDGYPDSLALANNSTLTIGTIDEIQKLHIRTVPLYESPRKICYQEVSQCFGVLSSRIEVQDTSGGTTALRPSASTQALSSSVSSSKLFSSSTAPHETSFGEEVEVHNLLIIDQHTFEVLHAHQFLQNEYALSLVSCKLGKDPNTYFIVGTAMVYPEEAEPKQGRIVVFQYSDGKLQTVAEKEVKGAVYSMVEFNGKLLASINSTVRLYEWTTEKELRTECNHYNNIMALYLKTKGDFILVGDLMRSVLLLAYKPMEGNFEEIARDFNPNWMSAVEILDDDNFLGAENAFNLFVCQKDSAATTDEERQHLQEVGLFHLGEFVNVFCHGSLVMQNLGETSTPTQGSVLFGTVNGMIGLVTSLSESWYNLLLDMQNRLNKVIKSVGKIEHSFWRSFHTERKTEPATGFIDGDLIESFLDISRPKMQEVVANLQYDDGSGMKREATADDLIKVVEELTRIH
Assay: Aiolos degradation in Mantle Cell Lymphoma lines (flow cytometry)
Type: cell-based
Settings: Mino cells, treatment time 24 h
Listed next: entries and their corresponding DC50.
Write down the numeric answer in nM and omit the unit.

The examples below pair each entry with its known result.
compound	DC50, nM
NC(=O)c1ncc(N2CCCCC2)nc1Nc1ccc(C2CCN(C[C@@H]3CCN(c4ccc5c(c4)C(=O)N(C4CCC(=O)NC4=O)C5=O)C3)CC2)cc1 (some centres unmarked) [Compound 149]	87
CN1CCN([C@@H]2CCCN(c3cnc(C(N)=O)c(Nc4ccc5c(c4)CCN(C4CN(c6ccc7c(c6)C(=O)N(C6CCC(=O)NC6=O)C7=O)C4)C5)n3)C2)C1=O (some centres unmarked) [Compound 30]	10

Find DC50 (Aiolos (Homo sapiens, UniProt Q96SW2+Q9UKT9)) for the entry CN1CCN([C@@H]2CCCN(c3cnc(C(N)=O)c(Nc4ccc(C5CCN(C[C@H]6CCN(c7ccc8c(c7)C(=O)N(C7CCC(=O)NC7=O)C8=O)C6)CC5)cc4)n3)C2)C1=O (some centres unmarked) [Compound 44]
100

Find DC50 (Aiolos (Homo sapiens, UniProt Q96SW2+Q9UKT9)) for the entry CN1CCN([C@@H]2CCCN(c3cnc(C(N)=O)c(Nc4ccc(C5CCN(C(=O)CCOCCNc6cccc7c6C(=O)N(C6CCC(=O)NC6=O)C7=O)CC5)cc4)n3)C2)C1=O (some centres unmarked) [Compound 25]
10

----------
Assay: Compound plasma exposure in cyno DRF study
Assay type: in vivo
Conditions: cynomolgus monkey, po, 100 mg/kg, 100 mg/kg PO, 14 days of dosing
measured-quantity: AUC (µM·h)
Write down the numeric answer in µM·h and omit the unit.

The examples below pair each entry with its known result.
compound	measure-unit	numeric-value
NC(=O)c1ncc(N2CCCCC2)nc1Nc1ccc(C2CCN(C[C@@H]3CCN(c4ccc5c(c4)C(=O)N(C4CCC(=O)NC4=O)C5=O)C3)CC2)cc1 (stereo partly drawn)	µM·h	2.66
CN1CCN([C@H]2CCCN(c3cnc(C(N)=O)c(Nc4ccc(C5CCN(CC6CCN(c7ccc(C(=O)NC8CCC(=O)NC8=O)nc7)CC6)CC5)cc4)n3)C2)C1=O (stereo partly drawn)	µM·h	3.84

# next compound below
I have this compound here, CN1CCN([C@@H]2CCCN(c3cnc(C(N)=O)c(Nc4ccc(C5CCN(C[C@H]6CCN(c7ccc8c(c7)C(=O)N(C7CCC(=O)NC7=O)C8=O)C6)CC5)cc4)n3)C2)C1=O (stereo partly drawn) , and I need its recorded AUC.
1.52

----------
Target: BTK (Mus musculus, UniProt P35991)
Construct: from tissue; host or cells: mouse blood B cells / splenocytes (CD-1 or BALB/c)
Sequence (P35991 whole entry): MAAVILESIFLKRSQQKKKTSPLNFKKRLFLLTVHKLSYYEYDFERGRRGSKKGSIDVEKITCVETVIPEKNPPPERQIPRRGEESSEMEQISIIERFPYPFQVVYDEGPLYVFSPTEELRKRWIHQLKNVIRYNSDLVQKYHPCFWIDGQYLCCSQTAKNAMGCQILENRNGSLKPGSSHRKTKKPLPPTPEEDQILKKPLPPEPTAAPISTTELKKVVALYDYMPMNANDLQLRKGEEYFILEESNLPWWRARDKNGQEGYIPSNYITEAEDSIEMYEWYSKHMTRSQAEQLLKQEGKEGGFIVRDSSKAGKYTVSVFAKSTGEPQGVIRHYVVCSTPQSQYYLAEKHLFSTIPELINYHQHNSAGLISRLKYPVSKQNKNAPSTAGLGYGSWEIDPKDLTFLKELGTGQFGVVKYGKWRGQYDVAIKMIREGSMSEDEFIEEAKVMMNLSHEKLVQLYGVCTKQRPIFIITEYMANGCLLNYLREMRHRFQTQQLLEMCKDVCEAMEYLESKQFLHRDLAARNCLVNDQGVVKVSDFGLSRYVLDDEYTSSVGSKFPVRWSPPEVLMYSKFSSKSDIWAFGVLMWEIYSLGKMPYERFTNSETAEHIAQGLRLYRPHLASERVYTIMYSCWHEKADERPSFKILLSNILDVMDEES
Experiment: In vivo degradation of BTK in mouse PD experiments with oral dosing
Conditions: oral dose 30 mg/kg, 24 h, splenocytes, HTRF
The label is label 1 for % BTK Remaining below 30% and label 0 for % BTK Remaining equal to or exceeding 30%.

compound	qualitative-label
NC(=O)c1ncc(N2CCC3(COC3)C2)nc1Nc1ccc(C2CCN(C[C@H]3CCN(c4ccc5c(c4)C(=O)N(C4CCC(=O)NC4=O)C5=O)C3)CC2)cc1 (some centres unmarked)	label 0

Threshold test, % BTK Remaining < 30%: CN1CCN([C@@H]2CCCN(c3cnc(C(N)=O)c(Nc4ccc(C5(C)CCN(C[C@H]6CCN(c7ccc8c(c7)C(=O)N(C7CCC(=O)NC7=O)C8=O)C6)CC5)cc4)n3)C2)C1=O (some centres unmarked)
label 1

Threshold test, % BTK Remaining < 30%: NC(=O)c1ncc(N2CCCCC2)nc1Nc1ccc(C2CCN(CC3CCN(c4ccc(C(=O)NC5CCC(=O)NC5=O)nc4)CC3)CC2)cc1 (centres unmarked)
label 1

Threshold test, % BTK Remaining < 30%: NC(=O)c1ncc(N2CCCCC2)nc1Nc1ccc(C2CCN(C[C@@H]3CCN(c4ccc5c(c4)C(=O)N(C4CCC(=O)NC4=O)C5=O)C3)CC2)cc1 (some centres unmarked)
label 1

Threshold test, % BTK Remaining < 30%: NC(=O)c1ncc(N2CCC[C@H](N3CCOC3=O)C2)nc1Nc1ccc(N2CCC(C3CN(c4ccc5c(c4)C(=O)N(C4CCC(=O)NC4=O)C5=O)C3)CC2)cc1 (some centres unmarked)
label 0

Threshold test, % BTK Remaining < 30%: CN1CCN([C@@H]2CCCN(c3cnc(C(N)=O)c(Nc4ccc(C5CN(CC6CCN(c7ccc(-c8nn(C9CCC(=O)NC9=O)c(=O)n8C)cc7)CC6)C5)cc4)n3)C2)C1=O (some centres unmarked)
label 0

Threshold test, % BTK Remaining < 30%: CN1CCN([C@@H]2CCCN(c3cnc(C(N)=O)c(Nc4ccc(C5CN(CC6CCN(c7cnn(C8CCC(=O)NC8=O)c(=O)c7)CC6)C5)cc4)n3)C2)C1=O (some centres unmarked)
label 0

Threshold test, % BTK Remaining < 30%: CN1CCN([C@@H]2CCCN(c3cnc(C(N)=O)c(Nc4ccc(C5CCN(CC6CCN(c7ccc(OC8CCC(=O)NC8=O)cn7)CC6)CC5)cc4)n3)C2)C1=O (some centres unmarked)
label 1

Threshold test, % BTK Remaining < 30%: CN1CCN([C@@H]2CCCN(c3cnc(C(N)=O)c(Nc4ccc(C5CCN(C[C@H]6CCN(c7ccc8c(c7)C(=O)N(C7CCC(=O)NC7=O)C8=O)C6)CC5)cc4)n3)C2)C1=O (some centres unmarked)
label 1

Threshold test, % BTK Remaining < 30%: `CN1CCN([C@@H]2CCCN(c3cnc(C(N)=O)c(Nc4ccc(C5CCN(C[C@H]6CCN(c7ccc8c(c7)C(=O)N([C@@H]7CCC(=O)NC7=O)C8=O)C6)CC5)nc4)n3)C2)C1=O`
label 0

Threshold test, % BTK Remaining < 30%: NC(=O)c1ncc(N2CCC(F)(F)C(CO)C2)nc1Nc1ccc(C2CCN(C[C@H]3CCN(c4ccc5c(c4)C(=O)N(C4CCC(=O)NC4=O)C5=O)C3)CC2)cc1 (some centres unmarked)
label 0

Data origin: patent US12600732B2
